Recorded values, source patent US20200369728A1.

- Tested on: Caspase 3
- method notes: Caspase 3 detection assay in SJSA1 cells
- Type: cell-based
- experimental setup: 3 μM, SJSA1, 48 h, Caspase 3 activation over DMSO-treated cells
Bridge positions count the residues as written; N and C are the ends. Square brackets hold non-standard residues; d marks the D form. Peptide text beside a SMILES is read from it. R8 = C=CCCCCCC[C@@](C)(N)C(=O)O; hLeu = CC(C)CC[C@H](N)C(=O)O; S5 = C=CCCC[C@](C)(N)C(=O)O
Here the recorded caspase 3 μM is given for each entry.

{"columns": ["compound", "observable", "reported"],
 "data": [
  ["CC(=O)N[C@@H](CC(C)C)C(=O)N[C@H](C(=O)N[C@@H](Cc1ccccc1)C(=O)N[C@]1(C)CCCCCC/C=C/CCC[C@@](C)(C(=O)N[C@@H](CO)C(=O)N[C@@H](C)C(=O)N[C@@H](C)C(N)=O)NC(=O)[C@H](CCC(C)C)NC(=O)[C@H](CCC(N)=O)NC(=O)[C@H](C)NC(=O)[C@H](Cc2c[nH]c3ccccc23)NC(=O)[C@H](Cc2ccc(O)cc2)NC(=O)[C@H](C)NC1=O)[C@@H](C)O [compound 115] (Ac-LTF[R8]AYWAQ[hLeu][S5]SAA-NH2; staple (E) 4-11)", "caspase 3 μM", 10]
]}

Now take the following compound into account.
I have this compound here, CC(=O)N[C@@H](CC(C)C)C(=O)N[C@H](C(=O)N[C@@H](Cc1ccccc1)C(=O)N[C@]1(C)CCCCCCC=CCCC[C@@](C)(C(=O)N[C@@H](CO)C(=O)N[C@@H](Cc2c[nH]c3ccccc23)C(=O)N[C@@H](C)C(N)=O)NC(=O)[C@H](CC(C)C)NC(=O)[C@H](CCC(N)=O)NC(=O)[C@H](C)NC(=O)[C@H](Cc2c[nH]c3ccccc23)NC(=O)[C@H](Cc2ccc(O)cc2)NC(=O)[C@H](C)NC1=O)[C@@H](C)O (single isomer, unassigned) , and I need its recorded caspase 3 μM.
11

* * *

- System: Caspase 3
- method notes: Caspase 3 detection assay in SJSA1 cells
- Assay type: cell-based
- experimental setup: 30 μM, SJSA1, 48 h, Caspase 3 activation over DMSO-treated cells
observable: caspase 30 μM
Output spec: single numeric token, no unit.

I have this molecule here, CC[C@H](C)[C@H](NC(=O)[C@H](C)NC(=O)[C@H](C)NC(=O)[C@]1(C)CCC/C=C/CCCCCC[C@@](C)(NC(=O)[C@H](Cc2ccccc2)NC(=O)[C@@H](NC(=O)[C@H](CC(C)C)NC(C)=O)[C@@H](C)O)C(=O)N[C@@H](C)C(=O)N[C@@H](Cc2ccc(O)cc2)C(=O)N[C@@H](Cc2c[nH]c3ccccc23)C(=O)N[C@@H](C)C(=O)N[C@@H](CCC(N)=O)C(=O)N[C@@H](CC(C)C)C(=O)N1)C(=O)N[C@H](C)C(N)=O [compound 71] , and I need its recorded caspase 30 μM.
23.52

* * *

- Tested on: SJSA-1 cells
- method notes: Cell lysis by peptidomimetic macrocycles (LDH release)
- Format: cell-based
- experimental setup: 50 μM, SJSA-1, 1 h
- Description: SJSA-1 cells were plated out one day in advance in clear flat-bottom plates (Costar, catalog number 353072) at 7500 cells/well with 100 ul/well of growth media, leaving row H columns 10-12 empty for media alone. On the day of the assay, media was exchanged with RPMI 1% FBS media, 90 uL of media per well. […] Cell plates were incubated for 1 hour at 37° C. […] LDH release is measured using the LDH cytotoxicity assay kit from Caymen, catalog #1000882.
Bridge positions count the residues as written; N and C are the ends. Square brackets hold non-standard residues; d marks the D form. Peptide text beside a SMILES is read from it. Trp(6-Cl) = N[C@@H](Cc1c[nH]c2cc(Cl)ccc12)C(=O)O; 2Nal = N[C@@H](Cc1ccc2ccccc2c1)C(=O)O; R8 = C=CCCCCCC[C@@](C)(N)C(=O)O; Cba = N[C@@H](CC1CCC1)C(=O)O; S5 = C=CCCC[C@](C)(N)C(=O)O; Ac3c = NC1(C(=O)O)CC1
observable: 50 μM % Lysed cells (1 h LDH) (%)
Value expressed in %; do not type the unit.

Worked examples, 2 compounds total:
{"columns": ["compound", "units symbol", "reported"],
 "data": [
  ["CC(=O)N[C@@H](CC(C)C)C(=O)N[C@H](C(=O)N[C@@H](Cc1ccccc1)C(=O)N[C@]1(C)CCCCCCC=CCCC[C@@](C)(C(=O)N[C@@H](C)C(=O)N[C@@H](C)C(=O)N[C@@H](C)C(=O)N[C@@H](C)C(=O)N[C@@H](C)C(=O)N[C@H](C)C(N)=O)NC(=O)[C@H](CC(C)C)NC(=O)[C@H](CCC(N)=O)NC(=O)[C@H](C)NC(=O)[C@H](Cc2c[nH]c3cc(Cl)ccc23)NC(=O)[C@H](Cc2ccc(O)cc2)NC(=O)[C@H](C)NC1=O)[C@@H](C)O (single isomer, unassigned) [compound 338]", "%", 1],
  ["CC(=O)N[C@@H](CC(C)C)C(=O)N[C@H](C(=O)N[C@@H](Cc1ccccc1)C(=O)N[C@]1(C)CCCCCCC=CCCC[C@@](C)(C(=O)N[C@@H](CO)C(=O)N[C@@H](C)C(=O)N[C@@H](CC(C)C)C(N)=O)NC(=O)[C@H](CC(C)C)NC(=O)[C@H](CCC(N)=O)NC(=O)[C@H](C)NC(=O)[C@H](Cc2c[nH]c3ccccc23)NC(=O)[C@H](Cc2ccc(O)cc2)NC(=O)[C@H](C)NC1=O)[C@@H](C)O [compound 4] (Ac-LTF[R8]AYWAQL[S5]SAL-NH2; staple 4-11)", "%", 2]
]}

I have this compound here, CCCC[C@H](NC(=O)[C@H](C)NC(=O)[C@H](C)NC(=O)[C@]1(C)CCCC=CCCCCCC[C@@](C)(NC(=O)[C@H](Cc2ccccc2)NC(=O)[C@@H](NC(=O)[C@H](CC(C)C)NC(C)=O)[C@@H](C)O)C(=O)N[C@@H](C)C(=O)N[C@@H](Cc2ccc(O)cc2)C(=O)N[C@@H](Cc2c[nH]c3ccccc23)C(=O)N[C@@H](Cc2cc(=O)oc3cc(OC)c(OC)cc23)C(=O)N[C@@H](CCC(N)=O)C(=O)N[C@@H](CC(C)C)C(=O)N1)C(=O)N[C@@H](C)C(N)=O [compound 415] , and I need its recorded 50 μM % Lysed cells (1 h LDH).
2

I have this compound here, CC(=O)N[C@@H](CC(C)C)C(=O)N[C@H](C(=O)N[C@@H](Cc1ccccc1)C(=O)N[C@]1(C)CCCCCC/C=C/CCC[C@@](C)(C(=O)N[C@@H](CO)C(=O)N[C@@H](C)C(=O)N[C@@H](C)C(N)=O)NC(=O)[C@H](CC(C)C)NC(=O)[C@H](CCC(N)=O)NC(=O)[C@H](C)NC(=O)[C@H](Cc2c[nH]c3cc(Cl)ccc23)NC(=O)[C@H](Cc2ccc(O)cc2)NC(=O)[C@H](C)NC1=O)[C@@H](C)O [compound 99] (Ac-LTF[R8]AY[Trp(6-Cl)]AQL[S5]SAA-NH2; staple (E) 4-11) , and I need its recorded 50 μM % Lysed cells (1 h LDH).
3.5

I have this compound here, CC(=O)N[C@@H](Cc1ccccc1)C(=O)N[C@]1(C)CCCCCCC=CCCC[C@@](C)(C(=O)N[C@@H](C)C(=O)N[C@@H](C)C(=O)N[C@@H](Cc2ccccc2)C(N)=O)NC(=O)[C@H](CC(C)C)NC(=O)C2(CC2)NC(=O)[C@H](CCC(=O)O)NC(=O)[C@H](Cc2c[nH]c3ccccc23)NC(=O)[C@H](Cc2ccc(O)cc2)NC(=O)[C@H](C)NC1=O [compound 18] (Ac-F[R8]AYWE[Ac3c]L[S5]AAF-NH2; staple 2-9) , and I need its recorded 50 μM % Lysed cells (1 h LDH).
4

I have this compound here, CC(=O)N[C@@H](CC(C)C)C(=O)N[C@H](C(=O)N[C@@H](Cc1ccccc1)C(=O)N[C@]1(C)CCCCCC/C=C/CCC[C@@](C)(C(=O)N[C@@H](C)C(=O)N[C@@H](C)C(=O)N[C@@H](C)C(=O)N[C@@H](C)C(=O)N[C@@H](C)C(=O)N[C@H](C)C(N)=O)NC(=O)[C@H](CC2CCC2)NC(=O)[C@H](CCC(N)=O)NC(=O)[C@H](C)NC(=O)[C@H](Cc2c[nH]c3ccccc23)NC(=O)[C@H](Cc2ccc(C(=O)O)cc2)NC(=O)[C@H](CCC(=O)O)NC1=O)[C@@H](C)O [compound 349] , and I need its recorded 50 μM % Lysed cells (1 h LDH).
0

I have this compound here, CC[C@H](C)[C@H](NC(C)=O)C(=O)N[C@H](C(=O)N[C@@H](Cc1ccccc1)C(=O)N[C@]1(C)CCCCCCC=CCCC[C@@](C)(C(=O)N[C@@H](C)C(=O)N[C@@H](C)C(=O)N[C@H](C(=O)N[C@H](C)C(N)=O)[C@@H](C)CC)NC(=O)[C@H](CC(C)C)NC(=O)[C@H](CCC(N)=O)NC(=O)[C@H](C(C)C)NC(=O)[C@H](Cc2c[nH]c3ccccc23)NC(=O)[C@H](Cc2ccc(O)cc2)NC(=O)[C@H](Cc2ccccc2)NC1=O)[C@@H](C)O [compound 177] (Ac-ITF[R8]FYWVQL[S5]AAI[dA]-NH2; staple 4-11) , and I need its recorded 50 μM % Lysed cells (1 h LDH).
1

I have this compound here, CC(=O)N[C@@H](CC(C)C)C(=O)N[C@H](C(=O)N[C@@H](Cc1ccccc1)C(=O)N[C@]1(C)CCCCCCC=CCCC[C@@](C)(C(=O)N[C@@H](CO)C(=O)N[C@@H](C)C(=O)N[C@@H](C)C(N)=O)NC(=O)[C@H](CC2CCC2)NC(=O)[C@H](CCC(N)=O)NC(=O)[C@H](C)NC(=O)[C@H](Cc2ccc3ccccc3c2)NC(=O)[C@H](Cc2ccc(O)cc2)NC(=O)[C@H](CCC(=O)O)NC1=O)[C@@H](C)O [compound 254] (Ac-LTF[R8]EY[2Nal]AQ[Cba][S5]SAA-NH2; staple 4-11) , and I need its recorded 50 μM % Lysed cells (1 h LDH).
75

I have this compound here, CC(=O)N[C@@H](CC(C)C)C(=O)N[C@H](C(=O)N[C@@H](Cc1ccccc1)C(=O)N[C@]1(C)CCCCCCC=CCCC[C@@](C)(C(=O)N[C@@H](CO)C(=O)N[C@@H](C)C(=O)N[C@@H](CO)C(N)=O)NC(=O)[C@H](CC(C)C)NC(=O)[C@H](CCC(N)=O)NC(=O)[C@H](C)NC(=O)[C@H](Cc2c[nH]c3ccccc23)NC(=O)[C@H](Cc2ccc(O)cc2)NC(=O)[C@H](C(C)C)NC1=O)[C@@H](C)O (single isomer, unassigned) [compound 144] , and I need its recorded 50 μM % Lysed cells (1 h LDH).
2
